# STUDY_SYSTEM: T1, 4H575-bN
# T1 chain: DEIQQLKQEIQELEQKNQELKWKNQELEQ
# ASSAY_TEXT: two-hybrid library CCNG1;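 also: natural log of median RNA to DNA barcode read ratio; higher means stronger binding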
MEASUREMENT_LABEL: interaction score
Give the value as a plain number.

Use these answered entries as a reference point.
- BINDER: "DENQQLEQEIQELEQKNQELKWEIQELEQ [4H1081-bN]"
  MEASUREMENT_LABEL: "interaction score"
  QUANTITATIVE_RESULT: -1.36
- BINDER: "DKNQQLKQKIQELKQENQELEWKIQELKQ [4H3926-bN]"
  MEASUREMENT_LABEL: "interaction score"
  QUANTITATIVE_RESULT: 0.813
- BINDER: "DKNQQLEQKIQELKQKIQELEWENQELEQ [4H3427-bN]"
  MEASUREMENT_LABEL: "interaction score"
  QUANTITATIVE_RESULT: -1.57

Ask: Recorded interaction score of DEIQQLEQEIQELKQKIQELKWKNQELKQ [4H112-bN] , please.
Reply: -0.471
